- Experimental Details: sensitizers of A549 cells to miR-34 induction, primary screen, imaging, A549 dox-inducible miR-34, nuclei and caspase counts (AID 1347080)
- Condition Info: A549 miR-34 inducible, Hoechst nuclei count, 48 h; measured here: total cells without miR-34 induction
// values below are reported cell count
Keep it simple and answer with nothing but the number.

Examples with their reported cell count follow.
CN1C(CC(=O)c2ccccc2)CCCC1CC(O)c1ccccc1 (centres undefined) | 10600
O=P(O)(O)OC(CO)CO | 10000
c1cnc2cc3c(cc2n1)C1CNCC3C1 | 10600
COc1ccccc1N1CCN(CCCCNC(=O)c2ccc(-c3ccc(C(C)=O)cc3)cc2)CC1 | 9600
CC1(C)[C@@H](OC(=O)CCC(=O)O)CC[C@]2(C)[C@H]3C(=O)C=C4[C@@H]5C[C@@](C)(C(=O)O)CC[C@]5(C)CC[C@@]4(C)[C@]3(C)CC[C@@H]12 | 10700

Recorded cell count (molecule COC(=O)[C@@H]1CC2=CC(=O)CC[C@]2(C)[C@@]23O[C@@H]2C[C@@]2(C)[C@@H](CC[C@@]24CCC(=O)O4)[C@H]13 ): 9600

Recorded cell count (molecule COc1ccc(CCN(C)CCCN2CCc3cc(OC)c(OC)cc3CC2=O)cc1OC ): 8880

Recorded cell count (molecule C[C@H](O)C(=O)Nc1c(I)c(C(=O)NC(CO)CO)c(I)c(C(=O)NC(CO)CO)c1I ): 10100

Recorded cell count (molecule CCN(CC)CCCN(c1ccccc1)C1Cc2ccccc2C1 ): 7530

---

// values below are reported luciferase signal
- Target: Mitogen-activated protein kinase 7 (Homo sapiens) (UniProt Q13164)
- Sequence (Q13164 whole entry, looked up, the tested form may be a part): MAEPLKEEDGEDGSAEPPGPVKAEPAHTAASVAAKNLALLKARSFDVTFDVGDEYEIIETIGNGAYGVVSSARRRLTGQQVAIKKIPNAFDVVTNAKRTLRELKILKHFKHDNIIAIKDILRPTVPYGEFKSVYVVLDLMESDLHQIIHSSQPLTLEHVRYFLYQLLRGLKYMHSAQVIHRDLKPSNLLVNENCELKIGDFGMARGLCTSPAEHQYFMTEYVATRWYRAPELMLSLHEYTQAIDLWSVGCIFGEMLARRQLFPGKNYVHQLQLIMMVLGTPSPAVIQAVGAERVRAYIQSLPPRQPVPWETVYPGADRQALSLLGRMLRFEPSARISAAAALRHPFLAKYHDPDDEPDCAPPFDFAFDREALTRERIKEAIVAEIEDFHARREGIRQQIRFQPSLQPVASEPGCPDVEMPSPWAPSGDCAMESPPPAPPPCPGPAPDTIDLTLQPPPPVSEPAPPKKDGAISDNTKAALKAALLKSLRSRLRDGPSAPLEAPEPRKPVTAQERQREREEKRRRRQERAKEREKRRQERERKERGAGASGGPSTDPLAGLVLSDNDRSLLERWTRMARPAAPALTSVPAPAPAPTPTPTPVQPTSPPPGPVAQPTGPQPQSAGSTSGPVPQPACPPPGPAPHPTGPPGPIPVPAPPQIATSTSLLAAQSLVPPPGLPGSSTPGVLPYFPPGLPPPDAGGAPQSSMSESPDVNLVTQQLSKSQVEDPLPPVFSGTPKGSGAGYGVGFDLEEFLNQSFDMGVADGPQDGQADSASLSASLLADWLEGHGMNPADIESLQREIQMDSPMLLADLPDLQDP
- Experimental Details: ERK5 transactivation activators in reporter cells, primary screen, cell-based, HTS (AID 1508626);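 note: luciferase driven by Gal4-ERK5 fusion binding five Gal4 sites before minimal TATA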
- Condition Info: HeLa Gal4-ERK5 transactivation, 18 h, at 5 µM, stronger effect = higher value
The source made the active and inactive calls.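 Rule for the calls: active = luciferase signal above three times the same-plate solvent-only control wells; inactive = the rest.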

CN(C)c1nc(N(C)C)nc(N(C)C)n1 | 40 AU (inactive)
O=C1C=CC2=C3c4cc(O)c(O)cc4CC3(O)COC2=C1O (configuration not stated) | 32 AU (inactive)
C1CNCCN1 | 560 AU (inactive)

Recorded luciferase signal (molecule CCCCCCCCCCOc1cc2c(=O)c(C(=O)OCC)c[nH]c2cc1OCC ): 44 AU (inactive)

Recorded luciferase signal (molecule Cc1occc(=O)c1O ): 52 AU (inactive)

Recorded luciferase signal (molecule O=C1C=CC(=C(c2ccc(O)cc2)c2ccc(O)cc2)C=C1 ): 148 AU (inactive)

---

- Experimental Details: ovarian cancer cell viability with rucaparib, profiling panel, oncology-focused library, rucaparib conditional (AID 1508598)
- Condition Info: patient-derived ovarian cancer cells, CellTiter-Glo viability, 144 h; at 0.313 µM; OCI-P5x cells; without rucaparib
Calls of active or inactive are those of the source.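 Rule for the calls: active = normalized viability below 100% at a tested concentration; inactive = the rest.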
Classes to choose from: T = active, F = inactive

Enquiry: In this assay, the call recorded for Nc1cccc2c1CN(C1CCC(=O)NC1=O)C2=O (stereo unspecified) was what?
Return: F

---

- Experimental Details: growth inhibition of DIPG glioma cells, dose response, cell-based, JHH-DIPG-1, MIPE4.0, CellTiter-Glo, qHTS (AID 1347062);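 for AC50: cells exposed to compound for two days before readout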
- Condition Info: JHH-DIPG-1 viability, CellTiter-Glo ATP luminescence
Records with an inconclusive call do not appear. Active and inactive are the calls of the source. Cut-off not given; nearly all actives show AC50 up to about 27 µM.
Classes to choose from: y (active), n (inactive)

Below are worked cases with known answers.
CNC1CCCN(c2c(F)cc3c(=O)c(C(=O)O)cn(C4CC4)c3c2OC)C1 (stereo unspecified) | n
Nc1nc(Cl)nc2c1ncn2[C@@H]1O[C@H](CO)[C@@H](O)[C@@H]1F | n
CO/N=C(\C(=O)N[C@@H]1C(=O)N2C(C(=O)OCOC(=O)C(C)(C)C)=C(/C=C\c3scnc3C)CS[C@H]12)c1csc(N)n1 | n
CC[C@@]1(O)C[C@H](O[C@H]2C[C@H](N(C)C)[C@H](O[C@H]3C[C@H](O)[C@H](O[C@H]4CCC(=O)[C@H](C)O4)[C@H](C)O3)[C@H](C)O2)c2c(cc3c(c2O)C(=O)c2c(O)cccc2C3=O)[C@H]1C(=O)OC | y
CCC(=O)NCC[C@@H]1CCc2ccc3c(c21)CCO3 | n
O=C(O)c1ccc(-n2nc(-c3ccccc3O)nc2-c2ccccc2O)cc1 | n
COCCCN1CCC(NC(=O)c2cc(Cl)c(N)c3c2OCC3)CC1 | n
OCC(O)C(O)C(O)CO (stereo unspecified) | n

Now let's try a different one.
Enquiry: In this assay, the call recorded for COc1cc2c(Nc3ccc(NC(=O)c4ccccc4)cc3)ncnc2cc1OCCCN1CCOCC1 was what?
Return: y

---

- Experimental Details: sensitizers of A549 cells to miR-34 induction, primary screen, imaging, A549 dox-inducible miR-34, nuclei and caspase counts (AID 1347080)
- Condition Info: A549 miR-34 inducible, Hoechst nuclei count, 48 h; measured here: total cells without miR-34 induction
Outcome Measure: cell count

Recorded cell count (molecule Cl/C(=C\n1cncn1)c1ccc(Cl)cc1Cl ): 9640

Recorded cell count (molecule CCCCC(CC)COc1ccc(-c2nc(-c3ccc(OC)cc3)nc(-c3ccc(OCC(CC)CCCC)cc3O)n2)c(O)c1 (centres undefined) ): 9840

---

- Experimental Details: differential killing of epithelial or mesenchymal cells, primary screen, imaging, PC-3E GFP, TEM4-18 mCherry, co-culture (AID 1345086);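 note: normalised mesenchymal count divided by normalised epithelial count so high means epithelial killing; cells exposed to compound for 72 h before imaging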
- Condition Info: imaging cell counts, at 1 µM, actives lie on both sides, counts scaled to control wells, 1 = unselective
// values below are reported red/green cell ratio (normalised)
Keep it simple and answer with nothing but the number.

Examples with their reported red/green cell ratio (normalised) follow.
COc1ccc(-c2oc3ccccc3c(=O)c2O)cc1OC | 0.86
O=C1NS(=O)(=O)c2ccccc21 | 1.14
O=C1CC(c2ccccc2)Oc2ccccc21 (configuration not stated) | 0.93

Recorded red/green cell ratio (normalised) (molecule COc1cc(/C=C/C(=O)O)ccc1O ): 1.05

Recorded red/green cell ratio (normalised) (molecule CN1CCN(c2c(F)cc3c(=O)c(C(=O)O)cn(CCF)c3c2F)CC1 ): 1.08

Recorded red/green cell ratio (normalised) (molecule CC1(C)S[C@@H]2[C@H](NC(=O)Cc3ccccc3)C(=O)N2[C@H]1C(=O)O ): 1.11

Recorded red/green cell ratio (normalised) (molecule CC(=O)Nc1ccc(OC(=O)c2ccccc2O)cc1 ): 0.93

Recorded red/green cell ratio (normalised) (molecule C1CNCCN1 ): 1.22

Recorded red/green cell ratio (normalised) (molecule COC(=O)[C@H](c1ccccc1Cl)N1CCc2sccc2C1 ): 1.19

Recorded red/green cell ratio (normalised) (molecule CC(C)n1c(/C=C/[C@@H](O)C[C@@H](O)CC(=O)O)c(-c2ccc(F)cc2)c2ccccc21 ): 0.7

Recorded red/green cell ratio (normalised) (molecule Cn1cc[nH]c1=S ): 0.96

Recorded red/green cell ratio (normalised) (molecule COc1cc(N)c(Cl)cc1C(=O)NC1CCN(CCCOc2ccc(F)cc2)CC1OC (configuration not stated) ): 0.95

---

- Experimental Details: differential killing of epithelial or mesenchymal cells, primary screen, imaging, PC-3E GFP, TEM4-18 mCherry, co-culture (AID 1345086);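 note: normalised mesenchymal count divided by normalised epithelial count so high means epithelial killing; cells exposed to compound for 72 h before imaging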
- Condition Info: imaging cell counts, at 1 µM, actives lie on both sides, counts scaled to control wells, 1 = unselective
Outcome Measure: red/green cell ratio (normalised)
Keep it simple and answer with nothing but the number.

CC1=CC2C(CC1=O)C(C)=CCC2C(C)C (centres undefined) | 1.21
NC(C(=O)O)C(O)C(=O)O (centres undefined) | 1.01
C=C1C2CC[C@@]3(C)[C@H](c4ccoc4)OC(=O)C[C@]13O[C@H]1CC(=O)C(C)(C)[C@H](C(O)C(=O)OC)[C@@]21C (some centres undefined) | 0.98
NC(=O)c1cc[n+](CC2=C(C(=O)[O-])N3C(=O)[C@@H](NC(=O)Cc4cccs4)[C@H]3SC2)cc1 | 0.75

Recorded red/green cell ratio (normalised) (compound O=C(O)[C@H](O)[C@@](O)(Cc1ccc(O)cc1)C(=O)O ): 1.3

---

- Experimental Details: JHH-DIPG-1 glioma cell viability, MIPE5.0 library, CellTiter-Glo luminescence, qHTS (AID 1347067);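 note: cells exposed to compound for 48 hours before readout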
- Condition Info: JHH-DIPG-1 glioma viability, CellTiter-Glo ATP luminescence
Results filed as inconclusive are left out. Activity calls are given as the source filed them. The limit is not given here; nearly all actives have AC50 up to about 26 µM. Where a SMILES comes first, the peptide text is derived from it. [ ]: non-standard residue; d: D form. The star is where a group is joined. Sta = CC(C)C[C@H](N)[C@@H](O)CC(=O)O; Isovaleryl = CC(C)CC(=O)*
Classes to choose from: 1.0 (active), 0.0 (inactive)

CCN(CC)CCOc1ccc(Cc2ccccc2)cc1 | 0.0
NC(N)=NC(N)=NCCc1ccccc1 | 0.0
CCCCCOC(=O)Nc1nc(=O)n([C@@H]2O[C@H](C)[C@@H](O)[C@H]2O)cc1F | 0.0
CC1=C(/C=C/C(C)=C/C=C/C(C)=C/C(=O)Nc2ccc(O)cc2)C(C)(C)CCC1 | 1.0
CC(C)CC(=O)N[C@H](C(=O)N[C@H](C(=O)N[C@@H](CC(C)C)[C@@H](O)CC(=O)N[C@@H](C)C(=O)N[C@@H](CC(C)C)[C@@H](O)CC(=O)O)C(C)C)C(C)C (Isovaleryl-VV[Sta]A[Sta]-OH) | 0.0
Cc1cc(O)c2c(c1)C(=O)c1cccc(O)c1C2=O | 0.0
CC(C)(O)CC[C@@H](O)[C@](C)(O)[C@H]1CC[C@@]2(O)C3=CC(=O)[C@@H]4C[C@@H](O)[C@@H](O)C[C@]4(C)[C@H]3CC[C@]12C | 0.0
Cc1nc(Nc2ncc(C(=O)Nc3c(C)cccc3Cl)s2)cc(N2CCN(CCO)CC2)n1 | 1.0

Now let's try a different one.
Enquiry: In this assay, the call recorded for OC(CCN1CCCCC1)(c1ccccc1)C1CC2C=CC1C2 (stereo not given) was what?
Return: 0.0

Cited source for all entries: PubChem BioAssay
